Biological target: rat P2X4 rH140A mutant (Rattus norvegicus, UniProt P51577, H140A)
Construct: rat P2X4 (NP_113782.1; WT and mutants) were transcribed from pGEMHE plasmids
Sequence (P51577 whole entry H140A): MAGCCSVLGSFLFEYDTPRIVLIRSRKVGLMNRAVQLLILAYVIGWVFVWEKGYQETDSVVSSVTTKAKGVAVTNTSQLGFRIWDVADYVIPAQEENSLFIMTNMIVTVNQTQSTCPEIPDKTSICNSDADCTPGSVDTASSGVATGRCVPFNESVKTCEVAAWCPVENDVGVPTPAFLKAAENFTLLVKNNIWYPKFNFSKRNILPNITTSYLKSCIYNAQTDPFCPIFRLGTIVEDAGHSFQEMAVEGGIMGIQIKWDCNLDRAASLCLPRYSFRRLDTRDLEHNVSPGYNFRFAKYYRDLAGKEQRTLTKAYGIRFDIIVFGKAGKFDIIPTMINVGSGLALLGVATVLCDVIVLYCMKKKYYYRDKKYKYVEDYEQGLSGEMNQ
Assay: Two-Electrode Voltage Clamp recording, rat P2X4 H140A mutant in Xenopus oocytes
Conditions: rH140A mutant; oocytes held at −70 mV; n = 7-8; read-out: EC50 (evoked current, dose-response)
Record form. Attribute: EC50. Fill in for each entry.
One number for each entry, in mM.

Lookup: Endpoint output: EC50 of Nc1ccn([C@@H]2O[C@H](COP(=O)(O)OP(=O)(O)OP(=O)(O)O)[C@@H](O)[C@H]2O)c(=O)n1 [CTP] . Value?
Found: 7.99

Others:
Lookup: Quick check: EC50 of Nc1ncnc2c1ncn2[C@@H]1O[C@H](COP(=O)(O)OP(=O)(O)OP(=O)(O)O)[C@@H](O)[C@H]1O [ATP, Adenosine 5-triphosphate] ?
Found: 0.0428
